Ref: patent US20110224226A1

# Method: Example 1 single dose study: pharmacokinetics
# Format: in vivo, human
# Condition notes: both sexes, human, plasma; single oral dose 50 mg, healthy volunteers, final mean
Measurement kind: AUC(0-inf) (ng·h/mL)
Write down the numeric answer in ng·h/mL and omit the unit.

## Input Provide only the value of recorded AUC(0-inf) for O=C(Nc1nc(-c2cc(Cl)cs2)c(N2CCN(C3CCCCC3)CC2)s1)c1cnc(N2CCC(C(=O)O)CC2)c(Cl)c1
## Output 8480

---

# Method: Example 1 single dose study: pharmacokinetics
# Type: in vivo, human
# Condition notes: both sexes, human, plasma, po, 75 mg, single oral dose 75 mg, healthy volunteers, preliminary mean; read-out: Cmax
Measurement kind: Cmax (ng/mL)
Kindly provide the numeric value in ng/mL only, without the unit symbol.

## Input State its Cmax for this compound: O=C(Nc1nc(-c2cc(Cl)cs2)c(N2CCN(C3CCCCC3)CC2)s1)c1cnc(N2CCC(C(=O)O)CC2)c(Cl)c1
## Output 446

---

# Method: Example 1 single dose study: pharmacokinetics
# Type: in vivo, human
# Condition notes: both sexes, human, plasma; single oral dose 75 mg, healthy volunteers, preliminary mean
Measurement kind: AUC (ng·h/mL)
Please reply with the bare figure in ng·h/mL and do not write the unit itself.

## Input Specify measured AUC for O=C(Nc1nc(-c2cc(Cl)cs2)c(N2CCN(C3CCCCC3)CC2)s1)c1cnc(N2CCC(C(=O)O)CC2)c(Cl)c1 [Formula I] .
## Output 12600

---

# Method: Example 1 single dose study: pharmacokinetics
# Type: in vivo, human
# Condition notes: both sexes, human, plasma; single oral dose 1 mg, healthy volunteers, final mean; read-out: AUC0-last
# Method: A single-center, randomized, double-blind, dose-rising study to determine the safety, pharmacokinetics, and pharmacodynamics of single doses of 1-(3-chloro-5-{[4-(4-chlorothiophen-2-yl)-5-(4-cyclohexylpiperazin-1-yl)thiazol-2-yl]carbamoyl} pyridin-2-yl)piperadine-4-carboxylic acid (Formula I) in normal healthy volunteers was performed. The starting dose of the drug of Formula I was 1 mg (expressed as free base). Successive dose cohorts received 3, 10, 20, 50, 75 and 100 mg. […]
Measurement kind: AUC(0-t) (ng·h/mL)
Provide the reading as a plain figure in ng·h/mL.

## Input Provide measured AUC(0-t) value, entry: O=C(Nc1nc(-c2cc(Cl)cs2)c(N2CCN(C3CCCCC3)CC2)s1)c1cnc(N2CCC(C(=O)O)CC2)c(Cl)c1 [Formula I]
## Output 130

---

# Method: Example 2 multi-dose study: pharmacokinetics
# Type: in vivo, human
# Condition notes: both sexes, human, in vivo, oral, 20 mg, 20 mg once daily, Study Day 1, mean; read-out: AUC0-last
Measurement kind: AUC(0-t) (ng·h/mL)
Express the result in ng·h/mL but write the number alone.

## Input Please report the measured AUC(0-t) for O=C(Nc1nc(-c2cc(Cl)cs2)c(N2CCN(C3CCCCC3)CC2)s1)c1cnc(N2CCC(C(=O)O)CC2)c(Cl)c1
## Output 1960

---

# Method: Example 2 multi-dose study: pharmacokinetics
# Type: in vivo, human
# Condition notes: both sexes, human, in vivo, oral; 10 mg once daily, Study Day 14, mean
Measurement kind: half-life (h)
Number in h, nothing else.

## Input Look up and state reported half-life for O=C(Nc1nc(-c2cc(Cl)cs2)c(N2CCN(C3CCCCC3)CC2)s1)c1cnc(N2CCC(C(=O)O)CC2)c(Cl)c1 [Formula I]
## Output 18.1
